Origin of values: ChEMBL document CHEMBL1156709

- tested-system: UniProt P11511
- Sequence (P11511 whole entry): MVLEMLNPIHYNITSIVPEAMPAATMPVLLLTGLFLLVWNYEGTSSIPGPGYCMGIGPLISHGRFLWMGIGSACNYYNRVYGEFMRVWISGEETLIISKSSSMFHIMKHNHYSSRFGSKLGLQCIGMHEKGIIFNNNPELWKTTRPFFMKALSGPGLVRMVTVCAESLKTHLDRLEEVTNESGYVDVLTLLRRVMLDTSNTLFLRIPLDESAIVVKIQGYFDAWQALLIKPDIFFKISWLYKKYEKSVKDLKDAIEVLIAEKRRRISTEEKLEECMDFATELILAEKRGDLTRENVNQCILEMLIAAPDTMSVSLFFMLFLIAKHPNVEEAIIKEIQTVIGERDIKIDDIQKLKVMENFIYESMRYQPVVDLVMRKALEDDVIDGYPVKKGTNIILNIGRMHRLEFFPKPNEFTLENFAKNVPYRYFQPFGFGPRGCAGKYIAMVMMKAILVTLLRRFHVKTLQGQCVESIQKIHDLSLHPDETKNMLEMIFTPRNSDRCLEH
- run-description: Inhibition of aromatase in human placental microsomes assessed as tritiated water release after 15 mins using [1-beta, 3H]androstenedione as substrate by scintillation counting
- Parameters: species or system Placenta
Please respond with reported IC50 for every item in the list.

# input For the compound shown here, C[C@H]1[C@H](C)CC[C@]2(C(=O)O)CC[C@]3(C)C(=CC[C@@H]4[C@@]5(C)CC/C(=N\O)C(C)(C)[C@@H]5CC[C@]43C)[C@H]12 , give the reported IC50.
# output > 500 µM

# input For the compound shown here, C[C@H]1[C@H](C)CC[C@]2(C(=O)O)CC[C@]3(C)C(=CC[C@@H]4[C@@]5(C)CC[C@H](O)C(C)(C)[C@@H]5CC[C@]43C)[C@H]12 , give the reported IC50.
# output 32 µM

# input For the compound shown here, C[C@H]1[C@H](C)CC[C@]2(C(=O)O)CC[C@]3(C)C(=CC[C@@H]4[C@@]5(C)CCC(=O)NC(C)(C)[C@@H]5CC[C@]43C)[C@H]12 , give the reported IC50.
# output > 500 µM

# input For the compound shown here, C=C(C)[C@@H]1CC[C@]2(C)[C@H](CC=C3[C@@H]4[C@@H](C)[C@H](C)CC[C@]4(C(=O)O)CC[C@]32C)[C@@]1(C)CCC#N , give the reported IC50.
# output > 500 µM

# input For the compound shown here, CC(=O)O[C@H]1CC[C@]2(C)[C@H]3CC=C4[C@@H]5[C@@H](C)[C@H](C)CC[C@]5(C(=O)NCCCN5CCN(CCCN)CC5)CC[C@@]4(C)[C@]3(C)CC[C@H]2C1(C)C , give the reported IC50.
# output < 500 µM

# input For the compound shown here, C[C@]12CCC(=O)C(O)=C1CC[C@@H]1[C@@H]2CC[C@]2(C)C(=O)CC[C@@H]12 , give the reported IC50.
# output 0.8 µM

# input For the compound shown here, C[C@H]1[C@H](C)CC[C@]2(C(=O)O)CC[C@]3(C)C(=CC[C@@H]4[C@@]5(C)CCC(=O)C(C)(C)[C@@H]5CC[C@]43C)[C@H]12 , give the reported IC50.
# output > 500 µM

# input For the compound shown here, C[C@H]1[C@H](C)CC[C@]2(C(=O)NCCCN3CCN(CCCN)CC3)CC[C@]3(C)C(=CC[C@@H]4[C@@]5(C)CC[C@H](O)C(C)(C)[C@@H]5CC[C@]43C)[C@H]12 , give the reported IC50.
# output < 500 µM
